Molecular target: FGFR1 (UniProt P11362)
Sequence (P11362 whole entry, looked up): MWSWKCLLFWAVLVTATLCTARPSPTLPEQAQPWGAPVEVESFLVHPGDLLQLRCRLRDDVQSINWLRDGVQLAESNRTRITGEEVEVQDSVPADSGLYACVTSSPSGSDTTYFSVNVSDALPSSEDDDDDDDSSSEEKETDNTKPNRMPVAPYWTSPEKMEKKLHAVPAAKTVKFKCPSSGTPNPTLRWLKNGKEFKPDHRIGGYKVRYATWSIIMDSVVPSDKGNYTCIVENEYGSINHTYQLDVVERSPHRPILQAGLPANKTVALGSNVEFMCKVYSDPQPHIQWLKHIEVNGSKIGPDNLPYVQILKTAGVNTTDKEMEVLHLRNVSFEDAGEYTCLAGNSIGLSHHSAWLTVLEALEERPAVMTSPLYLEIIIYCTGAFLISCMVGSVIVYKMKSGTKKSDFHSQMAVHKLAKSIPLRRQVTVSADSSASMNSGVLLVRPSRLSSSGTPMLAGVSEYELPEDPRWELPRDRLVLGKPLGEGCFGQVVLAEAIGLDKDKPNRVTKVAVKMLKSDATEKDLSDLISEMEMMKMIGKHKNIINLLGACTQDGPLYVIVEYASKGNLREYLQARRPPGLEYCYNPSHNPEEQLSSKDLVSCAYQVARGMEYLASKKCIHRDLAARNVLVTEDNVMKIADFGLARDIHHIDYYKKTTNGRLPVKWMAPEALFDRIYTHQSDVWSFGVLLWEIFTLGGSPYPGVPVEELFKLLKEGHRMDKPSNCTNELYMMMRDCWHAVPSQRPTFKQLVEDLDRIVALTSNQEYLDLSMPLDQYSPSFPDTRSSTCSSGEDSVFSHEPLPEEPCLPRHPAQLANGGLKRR
Test: phosphorylation enrichment, bacterial display (enrichment ratio); higher = better substrate or ligand; peptides without Tyr show the background;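 further: 11-residue human phosphosite peptides and single-mutation variants displayed on the E. coli surface, counted by deep sequencing, each peptide's frequency after selection divided by its frequency in the unselected input library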;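 further: frequency after pTyr selection over input frequency; kinase dosed for 20-30% of maximal phosphorylation in three min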
Note that class boundaries on phosphorylation enrichment are b0 (below 0.5), b1 (0.5 to below 0.7), b2 (0.7 or more)

seq_text	group_label
ESSKAYERALS [TTC37_Y1074]	b0
ELTSKYRGGGG [HBA1_Y141_V136E]	b0
HICTAYELVLA [DHCR24_Y190]	b2
FRDMDYRSFPR [RBM10_Y41_YF]	b0
TTSQLYDAMPI [PDPK1_Y9_V12M]	b1
ITRDIYETDFF [INSR_Y1185_M1180I_YF]	b1
TNGFTYGSSHQ [MANEA_Y331]	b1
VDEVLYEDSST [MTHFS_Y197]	b2
STEAIYRRYSK [SH3PXD2B_Y42]	b0
DPHKIYEFVNS [IRF3_Y107]	b2
LEHCQYVTEKV [ALDOB_Y204]	b2
VHNLDYYKMTT [FGFR3_Y647_K650M]	b2
PQGVRYIYTID [DCX_Y103]	b2
LIYTNYEVGKD [GSTP1_Y112_A114V]	b2
VSVVDYVEPSP [TXNRD2_Y70_A66S]	b2
ENFSEYQEIAV [HEMGN_Y150]	b2
FKELVYETVRV [FSHB_Y76]	b2
ETKTPYTVILI [SBDS_Y128_R126T]	b1
VCHELYNAIRD [PBRM1_Y54_T56A]	b0
DVAKEYGHLLP [HRC_Y99_S96A]	b0
ISKKHYAGLLF [POLD1_Y809_R808H]	b0
KASIMYPSNNC [CXCL11_Y52]	b0
RFLRGYQQDAF [HLA-A_Y137_R138Q_YF]	b2
FSCLPYRRLAY [SLC52A2_Y305_G306R]	b1
EESSHYSTEKE [ADAR_Y587]	b1

====

Target: MERTK (UniProt Q12866)
Sequence (Q12866 whole entry, looked up): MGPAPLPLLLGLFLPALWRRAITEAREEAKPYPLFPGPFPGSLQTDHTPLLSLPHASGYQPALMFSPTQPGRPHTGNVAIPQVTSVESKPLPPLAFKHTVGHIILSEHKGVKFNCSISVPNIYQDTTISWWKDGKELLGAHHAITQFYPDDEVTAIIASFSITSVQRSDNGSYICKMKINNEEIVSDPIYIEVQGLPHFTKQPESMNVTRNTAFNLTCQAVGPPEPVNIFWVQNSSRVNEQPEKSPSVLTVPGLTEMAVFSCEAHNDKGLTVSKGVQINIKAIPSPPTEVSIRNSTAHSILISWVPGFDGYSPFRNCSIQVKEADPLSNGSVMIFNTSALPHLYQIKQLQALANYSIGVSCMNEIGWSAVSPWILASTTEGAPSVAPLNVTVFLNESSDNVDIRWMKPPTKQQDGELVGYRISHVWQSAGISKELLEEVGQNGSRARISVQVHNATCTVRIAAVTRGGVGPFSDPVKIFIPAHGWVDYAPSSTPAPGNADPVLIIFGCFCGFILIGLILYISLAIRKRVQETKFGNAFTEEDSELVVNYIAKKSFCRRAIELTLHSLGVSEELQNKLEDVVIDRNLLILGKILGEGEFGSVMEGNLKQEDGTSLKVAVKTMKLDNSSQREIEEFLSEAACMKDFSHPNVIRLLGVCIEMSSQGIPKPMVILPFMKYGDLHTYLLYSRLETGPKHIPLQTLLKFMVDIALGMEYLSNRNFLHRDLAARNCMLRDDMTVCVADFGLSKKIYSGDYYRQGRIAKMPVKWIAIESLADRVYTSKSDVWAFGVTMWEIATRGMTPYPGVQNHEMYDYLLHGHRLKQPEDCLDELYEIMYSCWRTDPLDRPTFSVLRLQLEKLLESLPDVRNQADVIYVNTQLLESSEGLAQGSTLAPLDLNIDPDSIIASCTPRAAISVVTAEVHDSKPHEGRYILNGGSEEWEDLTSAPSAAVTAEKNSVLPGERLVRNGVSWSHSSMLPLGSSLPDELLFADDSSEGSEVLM
Test: phosphorylation enrichment, bacterial display (enrichment ratio); higher = better substrate or ligand; peptides without Tyr show the background
Mark rule met for reported phosphorylation enrichment of 0.5 or greater; mark rule not met for anything smaller.

seq_text	target_or_test_system	group_label
ARMTNCGLPRF [TSPAN12_Y138_Y138C_YF]	MERTK (UniProt Q12866)	rule not met
THEVRYVSAGQ [SLCO4A1_Y77]	MERTK (UniProt Q12866)	rule not met
QRKRAYVEIEF [MAK16_Y282_YF]	MERTK (UniProt Q12866)	rule met
RNPLRYTSILT [OR51B6_Y130_S126N]	MERTK (UniProt Q12866)	rule not met
DVFRQYASLTG [GANAB_Y379]	MERTK (UniProt Q12866)	rule not met
DLRGIYQKLVI	MERTK (UniProt Q12866)	rule met
AHEALYLEADL [CENPF_Y1920_E1915A]	MERTK (UniProt Q12866)	rule met
TTGLIYIGSHD [AASDH_Y870]	MERTK (UniProt Q12866)	rule not met
MRALIYNSSTA [PLEKHA7_Y243]	MERTK (UniProt Q12866)	rule not met
LDLPGYCLLRE [CCDC116_Y291_P293L]	MERTK (UniProt Q12866)	rule met
KPNMNYDKLSW [FLI1_Y332_R337W]	MERTK (UniProt Q12866)	rule not met
RKEAQYMLENE [SLC16A6_Y224]	MERTK (UniProt Q12866)	rule met
